Can you tell me pIC50 for the items I'm about to list?
# System: NCI-H460, human non-small cell lung carcinoma cells
# Assay text: Proliferation assay (crystal violet), NCI-H460
# Format: cell-based
# Condition info: read-out: Inhibition of H460 cell proliferation (activity range)
Please express pIC50 as -log10 of the molar concentration.

Which pIC50 value belongs to COc1cc(F)ccc1-c1ncnc(Nc2cccc(CS(C)(=O)=O)c2)n1 ?
5.92

Which pIC50 value belongs to CS(=O)(=O)Cc1cccc(Nc2ncnc(-c3ccc(F)cc3OCC3CC3)n2)c1 ?
6.31

Which pIC50 value belongs to CS(=O)(=O)Cc1cccc(Nc2ncnc(-c3ccc(F)cc3OCc3ccc(F)c(F)c3)n2)c1 ?
6.57

Which pIC50 value belongs to CS(=O)(=O)Cc1cccc(Nc2ncnc(-c3ccc(F)cc3OCc3ccnc(Cl)c3)n2)c1 ?
6.68

Which pIC50 value belongs to COc1cc(F)ccc1-c1ncnc(Nc2cccc(CS(=O)(=O)C3CC3)c2)n1 ?
6.22

Which pIC50 value belongs to CCOc1cc(F)ccc1-c1ncnc(Nc2cccc(CS(C)(=O)=O)c2)n1 ?
6.54

Which pIC50 value belongs to Cc1cc(COc2cc(F)ccc2-c2ncnc(Nc3cccc(CS(C)(=O)=O)c3)n2)ccn1 ?
6.47

Which pIC50 value belongs to CS(=O)(=O)Cc1cccc(Nc2ncnc(-c3ccc(F)cc3OCc3cccc(Cl)c3)n2)c1 ?
6.44
